# tested_target: T1, 14-3-3ζ nhpSer58 with a FLAG tag at its N-terminus (Homo sapiens (Human), UniProt P63104 1-245)
# T1 sequence: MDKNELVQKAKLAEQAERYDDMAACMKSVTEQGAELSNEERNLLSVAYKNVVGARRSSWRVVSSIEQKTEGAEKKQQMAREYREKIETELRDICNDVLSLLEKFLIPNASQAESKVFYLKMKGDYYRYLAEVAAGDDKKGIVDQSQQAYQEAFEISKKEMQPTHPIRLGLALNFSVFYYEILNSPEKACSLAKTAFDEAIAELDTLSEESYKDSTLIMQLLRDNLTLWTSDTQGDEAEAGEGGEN
observable: FC (fold)
Numbers only, in fold.

Ask | Tell me its FC given 2-amino-3-ketobutyrate coenzyme A ligase, mitochondrial [OS = Homo sapiens] (other, UniProt O75600 22-419, looked up) SALAQLRGILEGELEGIRGAGTWKSERVITSRQGPHIRVDGVSGGILNFCANNYLGLSSHPEVIQAGLQALEEFGAGLSSVRFICGTQSIHKNLEAKIARFHQREDAILYPSCYDANAGLFEALLTPEDAVLSDELNHASIIDGIRLCKAHKYRYRHLDMADLEAKLQEAQKHRLRLVATDGAFSMDGDIAPLQEICCLASRYGALVFMDECHATGFLGPTGRGTDELLGVMDQVTIINSTLGKALGGASGGYTTGPGPLVSLLRQRARPYLFSNSLPPAVVGCASKALDLLMGSNTIVQSMAAKTQRFRSKMEAAGFTISGASHPICPVMLGDARLASRMADDMLKRGIFVIGFSYPVVPKGKARIRVQISAVHSEEDIDRCVEAFVEVGRLHGALP as the entry.
Reply | 0.0267
